target: T1, MMP-26 (human)
T1 sequence: ASDF
assay summary: cell-based or functional assay
property name: % Inhibition of JEG-3 cell invasion, 5 µg/ml (first test) (%)
State the answer as a number, implicitly in %.

Task: Value lookup for % Inhibition of JEG-3 cell invasion, 5 µg/ml (first test); key = B10 (antibody, human IgG4, V domains shown) VH: EVQLLESGGGLVQPGGSLRLSCAASGFTFSSYAMMWVRQAPGKGLEWVSWIVPSGGTTFYADSVKGRFTISRDNSKNTLYLQMNSLRAEDTAVYYCARGLYRWGQGTLVTVSSASTKGPSVFP VL: DIQMTQSPSSLSASVGDRVTIACRTSQNVNRYLNWYQHKLGQAPKLLIYGATILQSGVPSRFRGSGSGTDFILTITNLQPEDFAVYYCQQTYSPPLTFGQGTKAEFKGTVAAPSV
Output: 48
